# testSystem: human NTSR1 (Homo sapiens, UniProt P30989)
# Construct: host or cells: HEK-293 cells (membrane preparations)
# Sequence (P30989 whole entry): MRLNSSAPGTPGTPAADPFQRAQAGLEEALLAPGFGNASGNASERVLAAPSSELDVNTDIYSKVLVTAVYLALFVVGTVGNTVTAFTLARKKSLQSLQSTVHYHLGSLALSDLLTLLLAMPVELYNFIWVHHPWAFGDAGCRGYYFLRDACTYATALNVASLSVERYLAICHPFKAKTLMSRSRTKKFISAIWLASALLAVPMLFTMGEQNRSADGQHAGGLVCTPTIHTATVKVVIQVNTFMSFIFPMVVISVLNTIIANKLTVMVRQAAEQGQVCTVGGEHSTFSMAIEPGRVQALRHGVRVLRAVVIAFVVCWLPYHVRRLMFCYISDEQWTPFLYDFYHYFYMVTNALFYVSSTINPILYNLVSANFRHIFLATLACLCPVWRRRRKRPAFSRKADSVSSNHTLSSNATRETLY
# measurementDescription: radioligand-receptor binding assay, [125I] labeled neurotensin (Eurofins Panlabs)
# particulars: [125I] neurotensin 0.02 nM, membranes from NTSR1 expressing HEK-293 cells, 45 minute incubation, Cheng and Prusoff; read-out: NTSR1 binding Ki
Square brackets hold non-standard residues; d marks the D form. Peptide text beside a SMILES is read from it. * marks the point of attachment. X4 = CCc1c2c(nc3ccc(O)cc13)-c1cc3c(c(=O)n1C2)COC(=O)[C@@]3(CC)OC(=O)OCCS*; Pen = CC(C)(S)[C@H](N)C(=O)O; Tle = CC(C)(C)[C@H](N)C(=O)O
Can you tell me pKi for the items I'm about to list?
# reply with the number alone; pKi is -log10 of concentration in mol/L

Task item: Using human NTSR1 (Homo sapiens, UniProt P30989) as the test system, report measured pKi of CCc1c2c(nc3ccc(O)cc13)-c1cc3c(c(=O)n1C2)COC(=O)[C@@]3(CC)OC(=O)OCCSSC(C)(C)[C@H](NC(C)=O)C(=O)N1CCC[C@H]1C(=O)N[C@@H](CCCNC(=N)N)C(=O)N[C@@H](CCCNC(=N)N)C(=O)N1CCC[C@H]1C(=O)N[C@@H](Cc1ccc(O)cc1)C(=O)N[C@H](C(=O)N[C@@H](CC(C)C)C(=O)O)C(C)(C)C [Compound 63] (Ac-[Pen](X4)PRRPY[Tle]L-OH) .
Reply: 8.72

Task item: Look up and report pKi, with human NTSR1 (Homo sapiens, UniProt P30989) as system, for COc1cc2cc(c1Cl)N(C)C(=O)C[C@H](OC(=O)[C@H](C)N(C)C(=O)CCSC1CC(=O)N(CCCCCC(=O)NCCCC[C@H](NC(C)=O)C(=O)N3CCC[C@H]3C(=O)N(C)[C@@H](CCCNC(=N)N)C(=O)N[C@@H](CCCNC(=N)N)C(=O)N3CCC[C@H]3C(=O)N[C@@H](Cc3ccc(O)cc3)C(=O)N[C@H](C(=O)N[C@@H](CC(C)C)C(=O)O)C(C)(C)C)C1=O)[C@]1(C)O[C@H]1[C@H](C)[C@@H]1C[C@@](O)(NC(=O)O1)[C@H](OC)/C=C/C=C(\C)C2 (stereo partly drawn) [Compound 15]
Reply: 8.97

Task item: Answer briefly: pKi recorded on human NTSR1 (Homo sapiens, UniProt P30989) for CO[C@H]1C(=O)[C@]2(C)[C@@H](OC)C[C@H]3OC[C@@]3(OC(C)=O)[C@H]2[C@H](OC(=O)c2ccccc2)[C@]2(O)C[C@H](OC(=O)[C@H](OC(=O)CCCCCN3C(=O)CC(SC(C)(C)[C@H](NC(C)=O)C(=O)N4CCC[C@H]4C(=O)N[C@@H](CCCNC(=N)N)C(=O)N[C@@H](CCCNC(=N)N)C(=O)N4CCC[C@H]4C(=O)N[C@@H](Cc4ccc(O)cc4)C(=O)N[C@H](C(=O)N[C@@H](CC(C)C)C(=O)O)C(C)(C)C)C3=O)[C@@H](NC(=O)OC(C)(C)C)c3ccccc3)C(C)=C1C2(C)C (stereo partly drawn) [Compound 4]
Reply: 8.69

The reported measurements were obtained from patent US20200078468A1.
